molecular target: recombinant human FcRn (Sino Biological Inc.) (human); experiment: SPR (Biacore T100), human FcRn immobilised, pH 6, two-state model
testReadout: Kd (nM)
Reply with just the number (in nM).

-- ask Need Kd of HUMIRA ® (antibody) , thanks.
-- reply 34

* * *

molecular target: recombinant mouse FcRn (R&D Systems) (mouse) (UniProt Q61559); test: SPR (Biacore T100), mouse FcRn immobilised, pH 6, two-state model
testReadout: pKd
# pKd = -log10(concentration in molar units)

-- ask Need pKd of HUMIRA ® (antibody) , thanks.
-- reply 8.18
